Data credit: ChEMBL document CHEMBL4513216

Attribute: cytotoxicity at 10 µM
Assay: Toxicity liver stage against HepG2, at 10uM
Format: cell-based
Design: test concentration 10 uM, cell line HepG2-A16-CD81EGFP
Conditions: human, HepG2-A16-CD81EGFP cells; read-out: INHIBITION
Test readout: cytotoxicity at 10 µM (%)

Molecule	Test readout	Endpoint result
O=S(=O)(Nc1ccccn1)c1cc(Cl)cc2c1OCC2	cytotoxicity at 10 µM	0.38
CCc1nc2n(n1)CCCC2Nc1nc(C2CC2)ns1 (stereo unspecified)	cytotoxicity at 10 µM	3.03
Cc1ccc(F)c(C(=O)N2C[C@@H](C(=O)O)[C@H](c3ccccc3)C2)c1Cl	cytotoxicity at 10 µM	-6.06
O=C(NCCc1ccccc1)NCC(O)c1cccs1 (stereo unspecified)	cytotoxicity at 10 µM	-11.9
O=C(NCc1ccc2c(c1)CCCO2)c1cn2c(n1)CNCC2	cytotoxicity at 10 µM	-15.7
O=C(O)c1coc(COc2cccc(F)c2)n1	cytotoxicity at 10 µM	0.523

----------
Experiment: Toxicity liver stage against HepG2, at 10uM
Format: cell-based
Design: test concentration 10 uM, cell line HepG2-A16-CD81EGFP
Conditions: human, HepG2-A16-CD81EGFP cells; read-out: INHIBITION
Attribute: cytotoxicity at 10 µM

Molecule	cytotoxicity at 10 µM (%)
COCCOCC(=O)Nc1ccc(C)cc1F	-3.81
CC(C)N(C)Cc1cnc2n1CCN(C(=O)c1cccs1)C2	-74.2
O=C(NCCCN1CCOCC1)c1cccc(OCc2ccccc2)c1	-4.87
Cc1cc(CN(C)C(=O)NC2CCCN(c3ncccn3)C2)no1 (configuration not stated)	-7.26
Cc1c(C(=O)NC2(C#N)CCCC2)nnn1-c1ccccc1Cl	-6.75
COc1nc2cc(C)ccc2cc1CN(C)Cc1cc(C)[nH]n1	4.3
Cc1cc(C)c(CNC(=O)N2CCCC2C(N)=O)c(=O)[nH]1 (configuration not stated)	-0.241
Cc1ccsc1CN1CCC2(CC1)CC(OCc1cccnc1)CO2 (configuration not stated)	3.45
CCNC(=O)C1CCCN(c2cccc(C(F)(F)F)n2)C1 (configuration not stated)	3.4
COc1ccc(NC(=O)Cn2cc(-c3ccccc3)ncc2=O)cn1	-4.73
CC(C)c1n[nH]c(C2CN(Cc3nnc(C4CC4)n3C)CCO2)n1 (configuration not stated)	-10.3
CNC(=O)C1CN(Cc2c[nH]cn2)CCN(C2CCOCC2)C1 (configuration not stated)	-17

----------
Attribute: cytotoxicity at 10 µM
Test: Toxicity liver stage against HepG2, at 10uM
Type: cell-based
Parameters: test concentration 10 uM, cell line HepG2-A16-CD81EGFP
Conditions: human, HepG2-A16-CD81EGFP cells; read-out: INHIBITION

Compound	cytotoxicity at 10 µM [%]
CCN1CCCCC1C(=O)N1CCC(OC2CCCC2)CC1 (stereo not drawn)	-20.6
O=C(C1CCOCC1)N1C[C@H]2CCC[C@@]2(COc2cccnc2)C1	-1.18
COCC1CCN(C(=O)c2cn(Cc3cccc(C(F)(F)F)c3)nn2)C1 (stereo not drawn)	-0.695
CC(C(=O)NCC(C)(C)c1ccc(Br)cc1)n1cncn1 (stereo not drawn)	1.73
CN1CCC(N2CCC(CN(Cc3ccncc3)C3CCC3)CC2)CC1	-7.19
O=C(Nc1ccccc1)[C@H]1CN2CC[C@H]1C[C@@H]2Cn1cc(CCO)nn1	-0.843
N#CC1(C(=O)N2CCC(Nc3cccnn3)CC2)CCCCC1	2.87
Cc1ncsc1C(=O)NC1CCN(CC(N)=O)CC1	-3.54
CN(Cc1ccc(F)cc1)[C@@H]1CN(C(=O)c2cccs2)C[C@H]1O	3.92
Cc1cc(C(=O)NCCC(=O)N2CCCc3ccccc32)no1	2.29
COc1cc(C(=O)NCC2(N(C)C)CCN(C)CC2)c2ccccc2n1	-0.356
CC(C)c1ccc(OCC(=O)NS(=O)(=O)c2cccnc2)cc1	-5.19
COCc1nc(N(C)C/C=C/c2ccccc2)c2cnn(C)c2n1	-2.21
CNC(=O)[C@@H]1C[C@@H](NC(=O)CCCc2cccs2)CN1C1CCOCC1	-0.828
CN1[C@@H]2CC[C@H]1CN(C(=O)c1sccc1S(N)(=O)=O)CC2	1.95
Cc1ccccc1-n1cnc(Cl)c1C(=O)O	-4.11
CSc1ccc(C(O)CNS(=O)(=O)C2CC2)cc1 (stereo not drawn)	-0.608
Cc1cc(C)nc(C2CCN(C(=O)c3cnco3)C2)n1 (stereo not drawn)	-4.22
CC(=O)N(c1ccc(C)cc1)c1nc(CN2CCCCC2C)cs1 (stereo not drawn)	-5.65
COc1ncccc1NC(=O)NC(C)c1nncn1C (stereo not drawn)	-18.8
O=S1(=O)NC(C2CCCN(S(=O)(=O)N3CCCC3)C2)=Nc2ccccc21 (stereo not drawn)	2.17
N#Cc1ccccc1CN1C[C@H]2CC[C@@H](C1)N(Cc1cscn1)C2=O	-8.42
Cc1cnc(C(=O)N2CCNCC2C(=O)NCc2ccncc2)cn1 (stereo not drawn)	0.89
O=C(NCCCN1CCOCC1)c1ccn(COc2ccc(F)cc2)n1	7.16
COc1cc2c(cc1-c1nc3c(cnn3C(C)C(C)C)[nH]1)OCO2 (stereo not drawn)	8.61
Cc1cc(Br)cnc1NCCN1CCC(N(C)C)CC1	-10.6
O=C(Cn1ccc2ccccc21)Nc1cc(N2CCOCC2)ncn1	-14
CSc1nccc(NCC2CNCCO2)n1 (stereo not drawn)	2.56
